Origin of the recorded values: patent US9409891B2

Assay: First stable form screening (amorphous Compound I in 19 solvents/mixtures at ambient conditions)
Assay type: physicochemical
Details: organic solvent or mixture, thermodynamic from solid; IPA; amorphous start, ambient; remained solution
Property name: solubility

Fill in: solubility of CC1=CC[C@H](C(=O)N(c2cc(C#CC(C)(C)C)sc2C(=O)O)[C@H]2CC[C@](O)(CO[C@H]3CCOC3)CC2)CC1 is ___
> 95.4 mg/mL

---

Assay: First stable form screening (amorphous Compound I in 19 solvents/mixtures at ambient conditions)
Assay type: physicochemical
Settings: organic solvent or mixture, thermodynamic from solid; THF; amorphous start, ambient; remained solution
Property name: solubility

Fill in: solubility of CC1=CC[C@H](C(=O)N(c2cc(C#CC(C)(C)C)sc2C(=O)O)[C@H]2CC[C@](O)(CO[C@H]3CCOC3)CC2)CC1 is ___
> 53.4 mg/mL
